Measured values drawn from patent US4565817A for this set.

ASSAY: in vivo
TEST_CONTEXT: mouse, po
VALUE_TYPE: LD50 (mg/kg)
Respond with the bare value in mg/kg.

Some molecules with known LD50 results, for comparison:
MOLECULE | NUMBER
Cn1c(=O)c2c(ncn2CCCc2noc(CCN3CCOCC3)n2)n(C)c1=O | 1900
CC(C)NCCc1nc(CCn2cnc3c2c(=O)n(C)c(=O)n3C)no1 [(CH2)2 (CH2)2 NHi.Pr] | 1750
CCCc1nc(Cn2cnc3c2c(=O)n(C)c(=O)n3C)no1 [Example 18] | 1400
CN1CCN(CCc2nc(Cn3cnc4c3c(=O)n(C)c(=O)n4C)no2)CC1 | 1670

Looking up c1ccc(C(Cc2noc(CCN3CCCCC3)n2)c2ccccc2)cc1 [Prenoxdiazine, reference compound] , I see its LD50 listed as 920

Looking up CN1CCN(CCc2nc(CC(O)Cn3cnc4c3c(=O)n(C)c(=O)n4C)no2)CC1 (centres unmarked) , I see its LD50 listed as 1800

Looking up Cn1c(=O)c2c(ncn2Cc2noc(CCN3CCOCC3)n2)n(C)c1=O , I see its LD50 listed as 1530

Looking up CCN(CC)CCc1nc(CCCn2cnc3c2c(=O)n(C)c(=O)n3C)no1 [Example 12] , I see its LD50 listed as 2250

Looking up Cn1c(=O)c2c(ncn2Cc2noc(CCN3CCCCC3)n2)n(C)c1=O , I see its LD50 listed as 1550

Looking up Cn1c(=O)c2c(ncn2CCc2noc(CCN3CCOCC3)n2)n(C)c1=O , I see its LD50 listed as 2600

Looking up CCN(CC)CCc1nc(Cn2cnc3c2c(=O)n(C)c(=O)n3C)no1 [Example 4] , I see its LD50 listed as 1400
